molecular target: T1, HER2ECDHis (human, UniProt P04626 23-653, biotinylated in the cross-block ELISA (sites not given)); test: ELISA; competitor 129
T1 construct: range 1-653; expressed in HEK-293F; also called soluble HER2; biotinylated HER2ECDHis
Recorded % binding vs no competitor for the following binders
The reply should contain only the number, in %.

{"Binder": "HuMab 153 (antibody, V domains shown) VH: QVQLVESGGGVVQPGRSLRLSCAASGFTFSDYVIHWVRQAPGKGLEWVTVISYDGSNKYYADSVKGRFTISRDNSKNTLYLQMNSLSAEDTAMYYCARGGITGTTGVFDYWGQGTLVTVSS VL: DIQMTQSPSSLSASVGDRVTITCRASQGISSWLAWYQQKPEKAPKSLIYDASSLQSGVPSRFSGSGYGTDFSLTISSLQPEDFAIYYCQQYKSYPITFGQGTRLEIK", "Assay metric": "% binding vs no competitor", "Experimental value": 106}

HuMab 169 (antibody, V domains shown, also called TH1014-169; PC1014-169) VH: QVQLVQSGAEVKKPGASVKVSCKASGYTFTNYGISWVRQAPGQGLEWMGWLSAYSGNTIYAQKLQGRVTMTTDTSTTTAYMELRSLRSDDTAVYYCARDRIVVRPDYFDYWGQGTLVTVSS VL: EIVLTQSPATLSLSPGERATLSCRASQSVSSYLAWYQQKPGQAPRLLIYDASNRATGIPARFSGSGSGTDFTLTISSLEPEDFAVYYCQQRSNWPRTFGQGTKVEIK yielded % binding vs no competitor of 106
